test system: A498; test: GI50, drug alone; higher = less potent; conditions: treatment: drug alone; 5 days
measured_metric: GI50, drug alone

1. C=CC(=O)Nc1cc2c(Nc3ccc(F)c(Cl)c3)ncnc2cc1OCCCN1CCOCC1 [CI-1033 (Canertinib)] ... 8.55 µM
2. O=c1[nH]c2ccc(Cl)cc2c(N[C@@H]2CN3CCC2CC3)c1-c1nc2ccccc2[nH]1 [CHIR-124] ... 0.498 µM
3. c1ccc2c(-c3cnn4cc(-c5ccc(N6CCNCC6)cc5)cnc34)ccnc2c1 ... 8.21 µM
4. COc1cc(CCc2cc(NC(=O)c3ccc(N4C[C@@H](C)N[C@@H](C)C4)cc3)n[nH]2)cc(OC)c1 [AZD4547] ... > 10 µM
5. CCc1cccc(CC)c1NC(=O)N1Cc2[nH]nc(NC(=O)c3ccc(N4CCN(C)CC4)cc3)c2C1 ... > 10 µM
6. CCOc1cc2ncc(C#N)c(Nc3ccc(OCc4ccccn4)c(Cl)c3)c2cc1NC(=O)/C=C/CN(C)C [Neratinib (HKI-272)] ... > 10 µM
7. CN1CCN(c2nc(C3=C(c4c[nH]c5ccccc45)C(=O)NC3=O)c3ccccc3n2)CC1 [Sotrastaurin (AEB071)] ... > 10 µM
